Biological target: F70C (NDM-1 mutant) (Klebsiella pneumoniae, UniProt C7C422, F70C)
Construct: made in house; host or cells: E. coli BL21 (DE3), pET-3k vector
Sequence (C7C422 29-270 F70C): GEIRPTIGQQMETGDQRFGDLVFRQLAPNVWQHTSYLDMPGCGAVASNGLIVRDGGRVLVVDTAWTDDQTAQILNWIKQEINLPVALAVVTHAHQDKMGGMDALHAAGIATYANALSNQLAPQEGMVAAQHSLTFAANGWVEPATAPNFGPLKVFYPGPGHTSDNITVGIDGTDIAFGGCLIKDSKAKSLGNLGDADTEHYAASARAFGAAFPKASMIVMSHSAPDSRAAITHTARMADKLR
Experiment: Specific activity against antibiotics by ultraviolet-visible spectroscopy (antibiotic hydrolysis)
Format: biochemical
Conditions: enzyme 0.001 mg/ml, 100 μM antibiotic, 50 μM ZnCl2, 20 mM Tris-HCl buffer, pH 7.0
Output class 1 for records whose Specific activity, F70C is lower than 6000 U/mg, class 0 for records at or above 6000 U/mg.

{"columns": ["structure.smiles.string", "label"],
 "data": [
  ["CC(C)(O/N=C(\\C(=O)N[C@@H]1C(=O)N2C(C(=O)[O-])=C(C[n+]3ccccc3)CS[C@H]12)c1csc(N)n1)C(=O)O", "class 1"],
  ["CC1(C)S[C@@H]2[C@H](NC(=O)Cc3ccccc3)C(=O)N2[C@H]1C(=O)O", "class 0"],
  ["CC1(C)S[C@@H]2[C@H](NC(=O)[C@H](N)c3ccccc3)C(=O)N2[C@H]1C(=O)O", "class 0"]
]}

Query: Take the compound CO/N=C(\C(=O)N[C@@H]1C(=O)N2C(C(=O)O)=C(COC(C)=O)CS[C@H]12)c1csc(N)n1 and say whether its Specific activity, F70C is less than 6000 U/mg.
Response: class 0

###

Below: a set of entries, each annotated with reported Specific activity, Wild-type NDM-1.
Target: Wild-type NDM-1 (Klebsiella pneumoniae)
Construct: made in house; host or cells: E. coli BL21 (DE3), pET-3k vector
Sequence (C7C422 29-270 limits assumed): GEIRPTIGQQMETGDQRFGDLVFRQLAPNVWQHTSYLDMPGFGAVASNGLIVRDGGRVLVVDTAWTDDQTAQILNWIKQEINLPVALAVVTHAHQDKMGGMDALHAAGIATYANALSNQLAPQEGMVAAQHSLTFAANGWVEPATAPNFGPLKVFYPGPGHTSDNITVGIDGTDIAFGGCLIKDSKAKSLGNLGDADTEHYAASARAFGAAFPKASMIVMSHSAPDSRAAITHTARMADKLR
Test: Specific activity against antibiotics by ultraviolet-visible spectroscopy (antibiotic hydrolysis)
Assay type: biochemical
Conditions: enzyme 0.001 mg/ml, 100 μM antibiotic, 50 μM ZnCl2, 20 mM Tris-HCl buffer, pH 7.0
Respond with the bare value in U/mg.

{"columns": ["structure.smiles.string", "metric", "experimental.value"],
 "data": [
  ["CC(C)(O/N=C(\\C(=O)N[C@@H]1C(=O)N2C(C(=O)[O-])=C(C[n+]3ccccc3)CS[C@H]12)c1csc(N)n1)C(=O)O", "Specific activity, Wild-type NDM-1", 3446]
]}

Query: Can you look up the measured Specific activity, Wild-type NDM-1 of CC1(C)S[C@@H]2[C@H](NC(=O)[C@H](N)c3ccccc3)C(=O)N2[C@H]1C(=O)O for me?
Response: 16349

Query: CO/N=C(\C(=O)N[C@@H]1C(=O)N2C(C(=O)O)=C(COC(C)=O)CS[C@H]12)c1csc(N)n1 , same question.
Response: 8166

Query: What do you get for CC1(C)S[C@@H]2[C@H](NC(=O)Cc3ccccc3)C(=O)N2[C@H]1C(=O)O ?
Response: 54764

Query: Moving on to the next compound: C[C@@H](O)[C@H]1C(=O)N2C(C(=O)O)=C(S[C@@H]3CN[C@H](C(=O)N(C)C)C3)[C@H](C)[C@H]12
Response: 6834

###

Listed here: items and their measured Specific activity, F70Cf.
Biological target: F70Cf (fluorescein-labelled NDM-1 mutant) (Klebsiella pneumoniae, UniProt C7C422, F70C)
Construct: made in house; host or cells: E. coli BL21 (DE3), pET-3k vector; labelled with F5M after purification
Sequence (C7C422 29-270 F70C): as the sequence (C7C422 29-270 F70C) above
Assay: Specific activity against antibiotics by ultraviolet-visible spectroscopy (antibiotic hydrolysis)
Assay type: biochemical
Details: enzyme 0.001 mg/ml, 100 μM antibiotic, 50 μM ZnCl2, 20 mM Tris-HCl buffer, pH 7.0
Number only, in U/mg; omit the unit.

{"columns": ["structure.smiles.string", "assayed.system", "Specific activity, F70Cf, U/mg"],
 "data": [
  ["CC1(C)S[C@@H]2[C@H](NC(=O)[C@H](N)c3ccccc3)C(=O)N2[C@H]1C(=O)O", "F70Cf (fluorescein-labelled NDM-1 mutant) (Klebsiella pneumoniae, UniProt C7C422, F70C)", 779]
]}

Query: What Specific activity, F70Cf appears in the records for this compound with F70Cf (fluorescein-labelled NDM-1 mutant) (Klebsiella pneumoniae, UniProt C7C422, F70C)? C[C@@H](O)[C@H]1C(=O)N2C(C(=O)O)=C(S[C@@H]3CN[C@H](C(=O)N(C)C)C3)[C@H](C)[C@H]12
Response: 506

Query: What do you get for CC1(C)S[C@@H]2[C@H](NC(=O)Cc3ccccc3)C(=O)N2[C@H]1C(=O)O ?
Response: 10720

Query: How about this compound: CC(C)(O/N=C(\C(=O)N[C@@H]1C(=O)N2C(C(=O)[O-])=C(C[n+]3ccccc3)CS[C@H]12)c1csc(N)n1)C(=O)O
Response: 308

Query: And the next one, CO/N=C(\C(=O)N[C@@H]1C(=O)N2C(C(=O)O)=C(COC(C)=O)CS[C@H]12)c1csc(N)n1 ?
Response: 1529
